Biological target: T1, LAG3 Protein, Human, Recombinant (His Tag) (Sino Biological Catalog No. 16498-H08H) (human, UniProt P18627 23-450)
T1 construct: Bought protein; also called hLAG3-His; LAG3-His; not shown: His tag
T1 sequence (looked up): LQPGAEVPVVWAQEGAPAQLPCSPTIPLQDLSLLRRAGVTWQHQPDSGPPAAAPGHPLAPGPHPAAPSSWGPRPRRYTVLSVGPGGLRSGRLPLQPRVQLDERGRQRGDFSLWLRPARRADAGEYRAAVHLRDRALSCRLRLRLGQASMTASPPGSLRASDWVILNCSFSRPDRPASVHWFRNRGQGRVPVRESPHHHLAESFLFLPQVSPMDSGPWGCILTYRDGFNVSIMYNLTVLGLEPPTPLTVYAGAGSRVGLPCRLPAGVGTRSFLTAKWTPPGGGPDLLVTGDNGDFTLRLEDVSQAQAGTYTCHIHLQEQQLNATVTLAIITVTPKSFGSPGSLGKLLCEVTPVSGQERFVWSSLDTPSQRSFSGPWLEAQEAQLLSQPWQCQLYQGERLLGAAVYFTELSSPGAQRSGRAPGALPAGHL
Experiment: SPR binning on LAG3-His; competitor 17
Procedure: The chip surface was regenerated after each cycle with 25 mM NaOH followed by HBS-EP wash provided in the kit.
Some binders, each annotated with its measured RU.
Return type: number; implicit unit RU.

Please review the entries below; each comes with its answer.
sdAb No. 24 (VHH, Fc of the tested form not described; also called sdAb 24; not shown: Fc part implied by anti-human Fc capture) VHH: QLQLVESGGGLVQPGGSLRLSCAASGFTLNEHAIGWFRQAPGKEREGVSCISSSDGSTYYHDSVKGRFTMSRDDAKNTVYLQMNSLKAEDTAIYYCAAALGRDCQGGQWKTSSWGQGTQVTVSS: -13.6
sdAb No. 73 (VHH, Fc not described; also called sdAb 73; not shown: Fc part implied by anti-human Fc capture) VHH: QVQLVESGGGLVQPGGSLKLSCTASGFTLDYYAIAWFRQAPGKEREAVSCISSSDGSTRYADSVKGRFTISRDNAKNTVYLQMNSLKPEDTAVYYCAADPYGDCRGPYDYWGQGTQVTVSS: -12.5

Next:
Lookup: Please look up its RU: sdAb No. 17 (VHH, Fc of the tested form not described; also called sdAb 17; not shown: Fc part implied by anti-human Fc capture and anti-human IgG1 Fc detection) VHH: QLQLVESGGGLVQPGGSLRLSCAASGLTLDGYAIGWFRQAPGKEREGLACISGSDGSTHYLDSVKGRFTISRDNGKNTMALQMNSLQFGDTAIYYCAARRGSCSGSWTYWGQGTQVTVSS
Found: -2
